system: Mycobacterium tuberculosis Erdman (autoluminescent); assay: total FIC90 (Loewe) at 90% inhibition, three-drug combination (log2); higher = more antagonistic; conditions: in vitro model: butyrate; time point: terminal (~4-5 doublings, model-specific)
observationType: total FIC90
Please respond with just the number, no unit label.

Take a look at these entries with their results.
>  <molecule>
NNC(=O)c1ccncc1 [isoniazid] + COc1c(N2C[C@@H]3CCCN[C@@H]3C2)c(F)cc2c(=O)c(C(=O)O)cn(C3CC3)c12 [moxifloxacin] + O=[N+]([O-])c1cn2c(n1)OC[C@@H](OCc1ccc(OC(F)(F)F)cc1)C2 [pretomanid]

>  <testedOn>
Mycobacterium tuberculosis Erdman (autoluminescent)

>  <observationType>
total FIC90

>  <reading>
2.38

$$$$
>  <molecule>
NNC(=O)c1ccncc1 [isoniazid] + CC(=O)NC[C@H]1CN(c2ccc(N3CCOCC3)c(F)c2)C(=O)O1 [linezolid] + CO[C@H]1/C=C/O[C@@]2(C)Oc3c(C)c(O)c4c(O)c(c(/C=N/N5CCN(C6CCCC6)CC5)c(O)c4c3C2=O)NC(=O)/C(C)=C\C=C\[C@H](C)[C@H](O)[C@@H](C)[C@@H](O)[C@@H](C)[C@H](OC(C)=O)[C@@H]1C [rifapentine]

>  <testedOn>
Mycobacterium tuberculosis Erdman (autoluminescent)

>  <observationType>
total FIC90

>  <reading>
0.0682

$$$$
>  <molecule>
COc1c(N2C[C@@H]3CCCN[C@@H]3C2)c(F)cc2c(=O)c(C(=O)O)cn(C3CC3)c12 [moxifloxacin] + NC(=O)c1cnccn1 [pyrazinamide] + CO[C@H]1/C=C/O[C@@]2(C)Oc3c(C)c(O)c4c(O)c(c(/C=N/N5CCN(C6CCCC6)CC5)c(O)c4c3C2=O)NC(=O)/C(C)=C\C=C\[C@H](C)[C@H](O)[C@@H](C)[C@@H](O)[C@@H](C)[C@H](OC(C)=O)[C@@H]1C [rifapentine]

>  <testedOn>
Mycobacterium tuberculosis Erdman (autoluminescent)

>  <observationType>
total FIC90

>  <reading>
1.19

$$$$

Attention now turns to another entry.
IN: Determine reported total FIC90 for CC(C)/N=c1\cc2n(-c3ccc(Cl)cc3)c3ccccc3nc-2cc1Nc1ccc(Cl)cc1 [clofazimine] + NNC(=O)c1ccncc1 [isoniazid] + NC(=O)c1cnccn1 [pyrazinamide] ; test system: Mycobacterium tuberculosis Erdman (autoluminescent).
OUT: 0.168

----------
In this section we review reported FIC90 values for a set of molecules.
system: Mycobacterium tuberculosis Erdman (autoluminescent); assay: FIC90 (Loewe) at 90% inhibition (log2); higher = more antagonistic; details: in vitro model: cholesterol 0.05 mM; time point: terminal (~4-5 doublings, model-specific)
Please respond with just the number, no unit label.

Take a look at these entries with their results.
>  <molecule>
NNC(=O)c1ccncc1 [isoniazid] + CO[C@H]1/C=C/O[C@@]2(C)Oc3c(C)c(O)c4c(O)c(c(/C=N/N5CCN(C6CCCC6)CC5)c(O)c4c3C2=O)NC(=O)/C(C)=C\C=C\[C@H](C)[C@H](O)[C@@H](C)[C@@H](O)[C@@H](C)[C@H](OC(C)=O)[C@@H]1C

>  <reading>
1.12

$$$$
>  <molecule>
CC(=O)NC[C@H]1CN(c2ccc(N3CCOCC3)c(F)c2)C(=O)O1 [linezolid] + CO[C@H]1/C=C/O[C@@]2(C)Oc3c(C)c(O)c4c(O)c(c(/C=N/N5CCN(C)CC5)c(O)c4c3C2=O)NC(=O)/C(C)=C\C=C\[C@H](C)[C@H](O)[C@@H](C)[C@@H](O)[C@@H](C)[C@H](OC(C)=O)[C@@H]1C [rifampicin]

>  <reading>
-0.403

$$$$
>  <molecule>
CC(C)/N=c1\cc2n(-c3ccc(Cl)cc3)c3ccccc3nc-2cc1Nc1ccc(Cl)cc1 [clofazimine] + CO[C@H]1/C=C/O[C@@]2(C)Oc3c(C)c(O)c4c(O)c(c(/C=N/N5CCN(C)CC5)c(O)c4c3C2=O)NC(=O)/C(C)=C\C=C\[C@H](C)[C@H](O)[C@@H](C)[C@@H](O)[C@@H](C)[C@H](OC(C)=O)[C@@H]1C [rifampicin]

>  <reading>
2.57

$$$$

IN: Determine reported FIC90 for CC(C)/N=c1\cc2n(-c3ccc(Cl)cc3)c3ccccc3nc-2cc1Nc1ccc(Cl)cc1 [clofazimine] + COc1c(N2C[C@@H]3CCCN[C@@H]3C2)c(F)cc2c(=O)c(C(=O)O)cn(C3CC3)c12 [moxifloxacin] ; test system: Mycobacterium tuberculosis Erdman (autoluminescent).
OUT: -0.276

----------
tested on: Mycobacterium tuberculosis Erdman (autoluminescent); assay: AUC25, normalised area under dose response up to IC25 (three-drug combination) (fraction (0-1)); higher = more potent at low dose; settings: in vitro model: valerate; time point: constant (~7 days, model-specific)
observationType: AUC25
Please respond with just the number, no unit label.

Take a look at these entries with their results.
>  <molecule>
COc1nc2ccc(Br)cc2cc1[C@@H](c1ccccc1)[C@@](O)(CCN(C)C)c1cccc2ccccc12 [bedaquiline] + CC[C@@H](CO)NCCN[C@@H](CC)CO [ethambutol] + NNC(=O)c1ccncc1 [isoniazid]

>  <AUC25>
0.116

$$$$
>  <molecule>
CC(C)/N=c1\cc2n(-c3ccc(Cl)cc3)c3ccccc3nc-2cc1Nc1ccc(Cl)cc1 [clofazimine] + CC[C@@H](CO)NCCN[C@@H](CC)CO [ethambutol] + CC(=O)NC[C@H]1CN(c2ccc(N3CCOCC3)c(F)c2)C(=O)O1 [linezolid]

>  <AUC25>
0.11

$$$$

Attention now turns to another entry.
IN: Determine reported AUC25 for CC[C@@H](CO)NCCN[C@@H](CC)CO [ethambutol] + NNC(=O)c1ccncc1 [isoniazid] + CO[C@H]1/C=C/O[C@@]2(C)Oc3c(C)c(O)c4c(O)c(c(/C=N/N5CCN(C6CCCC6)CC5)c(O)c4c3C2=O)NC(=O)/C(C)=C\C=C\[C@H](C)[C@H](O)[C@@H](C)[C@@H](O)[C@@H](C)[C@H](OC(C)=O)[C@@H]1C [rifapentine] ; test system: Mycobacterium tuberculosis Erdman (autoluminescent).
OUT: 0.0468

----------
test system: Mycobacterium tuberculosis Erdman (autoluminescent); assay: GRinf, maximum normalised growth rate inhibition (three-drug combination) (unitless (-1 to 1)); higher = less effect (negative = killing); details: in vitro model: butyrate; time point: terminal (~4-5 doublings, model-specific)
observationType: GRinf
Please respond with just the number, no unit label.

>  <molecule>
CC[C@@H](CO)NCCN[C@@H](CC)CO [ethambutol] + O=[N+]([O-])c1cn2c(n1)OC[C@@H](OCc1ccc(OC(F)(F)F)cc1)C2 [pretomanid] + CO[C@H]1/C=C/O[C@@]2(C)Oc3c(C)c(O)c4c(O)c(c(/C=N/N5CCN(C6CCCC6)CC5)c(O)c4c3C2=O)NC(=O)/C(C)=C\C=C\[C@H](C)[C@H](O)[C@@H](C)[C@@H](O)[C@@H](C)[C@H](OC(C)=O)[C@@H]1C [rifapentine]

>  <observationType>
GRinf

>  <reading>
0.0016

$$$$
>  <molecule>
CC(=O)NC[C@H]1CN(c2ccc(N3CCOCC3)c(F)c2)C(=O)O1 [linezolid] + COc1c(N2C[C@@H]3CCCN[C@@H]3C2)c(F)cc2c(=O)c(C(=O)O)cn(C3CC3)c12 [moxifloxacin] + NC(=O)c1cnccn1 [pyrazinamide]

>  <observationType>
GRinf

>  <reading>
0.0307

$$$$
>  <molecule>
COc1nc2ccc(Br)cc2cc1[C@@H](c1ccccc1)[C@@](O)(CCN(C)C)c1cccc2ccccc12 [bedaquiline] + NNC(=O)c1ccncc1 [isoniazid] + NC(=O)c1cnccn1 [pyrazinamide]

>  <observationType>
GRinf

>  <reading>
-0.0731

$$$$
>  <molecule>
COc1nc2ccc(Br)cc2cc1[C@@H](c1ccccc1)[C@@](O)(CCN(C)C)c1cccc2ccccc12 [bedaquiline] + CC[C@@H](CO)NCCN[C@@H](CC)CO [ethambutol] + CO[C@H]1/C=C/O[C@@]2(C)Oc3c(C)c(O)c4c(O)c(c(/C=N/N5CCN(C)CC5)c(O)c4c3C2=O)NC(=O)/C(C)=C\C=C\[C@H](C)[C@H](O)[C@@H](C)[C@@H](O)[C@@H](C)[C@H](OC(C)=O)[C@@H]1C [rifampicin]

>  <observationType>
GRinf

>  <reading>
-0.0944

$$$$
>  <molecule>
COc1nc2ccc(Br)cc2cc1[C@@H](c1ccccc1)[C@@](O)(CCN(C)C)c1cccc2ccccc12 [bedaquiline] + CC(C)/N=c1\cc2n(-c3ccc(Cl)cc3)c3ccccc3nc-2cc1Nc1ccc(Cl)cc1 [clofazimine] + O=[N+]([O-])c1cn2c(n1)OC[C@@H](OCc1ccc(OC(F)(F)F)cc1)C2 [pretomanid]

>  <observationType>
GRinf

>  <reading>
-0.123

$$$$

IN: Give reported GRinf value for CC(C)/N=c1\cc2n(-c3ccc(Cl)cc3)c3ccccc3nc-2cc1Nc1ccc(Cl)cc1 [clofazimine] + O=[N+]([O-])c1cn2c(n1)OC[C@@H](OCc1ccc(OC(F)(F)F)cc1)C2 [pretomanid] + NC(=O)c1cnccn1 [pyrazinamide]
OUT: -0.0731
